Numbers sourced from paper PMC9377253.

Tested on: doxorubicin-sensitive Colo 205 colonic adenocarcinoma cells
Test: MTT antiproliferative assay (72 h), Colo 205
Type: cell-based, human
Measurement Context: 72 h incubation, read-out: Antiproliferative IC50, Colo205
Procedure: Human colonic adenocarcinoma cell lines (Colo 205 doxorubicin-sensitive and Colo 320/MDR-LRP multidrug-resistant expressing ABCB1 (MDR1)-LRP), ATCC-CCL-220.1 (Colo 320) and CCL-222 (Colo 205) were purchased from LGC Promochem, Teddington, UK. The cells were cultured in RPMI 1640 medium supplemented with 10% heat-inactivated foetal bovine serum, 2 mM L-glutamine, 1 mM Na-pyruvate and 100 mM Hepes. The cell lines were incubated at 37 °C, in a 5% CO2, 95% air atmosphere. […]
Quantity Measured: IC50 (µM)

>  <Substance Smiles>
C=C1C(=O)O[C@@H]2[C@H]1CCC(C)=C1CCC(=O)O[C@]12C

>  <Assay System>
doxorubicin-sensitive Colo 205 colonic adenocarcinoma cells

>  <Readout Units>
µM

>  <Measurement>
11

$$$$
